# EXPERIMENTAL_SYSTEM: Adenosine receptor A2a (Homo sapiens)
# Sequence (P29274 whole entry): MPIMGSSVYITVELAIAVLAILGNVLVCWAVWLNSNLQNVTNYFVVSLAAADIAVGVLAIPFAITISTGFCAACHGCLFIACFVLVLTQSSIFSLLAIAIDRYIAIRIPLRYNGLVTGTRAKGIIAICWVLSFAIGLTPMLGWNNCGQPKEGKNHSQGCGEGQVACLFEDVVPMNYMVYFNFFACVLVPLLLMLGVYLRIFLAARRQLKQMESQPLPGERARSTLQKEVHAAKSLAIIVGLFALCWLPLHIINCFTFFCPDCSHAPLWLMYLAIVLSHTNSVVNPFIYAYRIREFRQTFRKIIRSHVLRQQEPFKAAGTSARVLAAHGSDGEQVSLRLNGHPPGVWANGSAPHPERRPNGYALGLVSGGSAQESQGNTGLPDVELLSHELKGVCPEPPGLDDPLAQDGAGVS
# ASSAY_INFO: Displacement of [3H]ZM241385 from human recombinant adenosine A2A receptor expressed in CHO cells at 10 uM by liquid scintillation counting relative to control
# Format: cell-based
TEST_READOUT: Activity (%)

Before answering, review these 8 worked examples.
- SMILES_RECORD: "O=[N+]([O-])c1ccc(Nc2nc(-c3ccccc3)nc3c2nnn3Cc2ccccc2)cc1"
  QUANTITY_UNIT: "%"
  Activity: 98
- SMILES_RECORD: "Nc1ccc(Nc2nc(-c3ccccc3)nc3c2nnn3Cc2ccccc2)cc1"
  QUANTITY_UNIT: "%"
  Activity: 77
- SMILES_RECORD: "O=C(Nc1ccccc1)Nc1ccc(Nc2nc(-c3ccccc3)nc3c2ncn3Cc2ccccc2)cc1"
  QUANTITY_UNIT: "%"
  Activity: 107
- SMILES_RECORD: "O=[N+]([O-])c1ccc(Nc2nc(-c3ccccc3)nc3c2ncn3Cc2ccccc2)cc1"
  QUANTITY_UNIT: "%"
  Activity: 84
- SMILES_RECORD: "O=C(Nc1ccccc1)Nc1ccc(Nc2nc(-c3ccccc3)nc3c2nnn3Cc2ccccc2)cc1"
  QUANTITY_UNIT: "%"
  Activity: 133
- SMILES_RECORD: "COc1ccc(NC(=O)Nc2ccc(Nc3nc(-c4ccccc4)nc4c3ncn4Cc3ccccc3)cc2)cc1"
  QUANTITY_UNIT: "%"
  Activity: 166
- SMILES_RECORD: "O=C(Nc1ccc(Nc2nc(-c3ccccc3)nc3c2ncn3Cc2ccccc2)cc1)Nc1ccc(C(F)(F)F)cc1"
  QUANTITY_UNIT: "%"
  Activity: 149
- SMILES_RECORD: "O=C(Nc1ccc(Nc2nc(-c3ccccc3)nc3c2nnn3Cc2ccccc2)cc1)Nc1ccc(C(F)(F)F)cc1"
  QUANTITY_UNIT: "%"
  Activity: 127

a. O=C(Nc1ccc(F)cc1)Nc1ccc(Nc2nc(-c3ccccc3)nc3c2ncn3Cc2ccccc2)cc1
b. O=C(Nc1ccc(F)cc1)Nc1ccc(Nc2nc(-c3ccccc3)nc3c2nnn3Cc2ccccc2)cc1
c. Nc1ccc(Nc2nc(-c3ccccc3)nc3c2ncn3Cc2ccccc2)cc1
Please rank these molecules by Activity in descending order. The labels, placed in the requested order, form the answer.
b, a, c
